Consider the following binders; for each one, report its kon.
- measurement-target: T1, wild type human CD47 (Acro Biosystems, cat. no. CD7-H5227) (human, UniProt Q08722 19-139)
- T1 construct: Bought protein used as SPR analyte; also called Human CD47 wt; wild-type CD47
- T1 sequence (Q08722 19-139 limits assumed): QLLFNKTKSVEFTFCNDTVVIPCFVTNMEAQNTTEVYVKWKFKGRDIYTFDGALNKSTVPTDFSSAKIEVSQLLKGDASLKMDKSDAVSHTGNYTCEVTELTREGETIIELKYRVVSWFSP
- assay-procedure: SPR, IgG captured, CD47 in flow; exp 3;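 further: other target is a CD47 mutein carrying C33G, used to obtain true monovalent affinity, with kon and koff fitted from SPR binding curves and KD derived from both rates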
Report the figure in M⁻¹ s⁻¹ without appending any unit label.

Inquiry: Recorded kon for 108VH4.M4-VL1.M1 (antibody, V domains shown, also called original humanized 108C10A6 antibody) VH: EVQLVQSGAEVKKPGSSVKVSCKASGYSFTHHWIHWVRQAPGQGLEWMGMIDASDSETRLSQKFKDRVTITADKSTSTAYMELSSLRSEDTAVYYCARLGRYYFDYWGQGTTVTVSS VL: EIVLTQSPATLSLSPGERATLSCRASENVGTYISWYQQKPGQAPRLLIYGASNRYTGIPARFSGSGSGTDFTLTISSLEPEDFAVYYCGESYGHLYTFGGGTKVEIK , please?
Reply text: 1e+06

Inquiry: Recorded kon for 108VH10 / 108VL10.M1 (antibody, V domains shown, 4D5-framework series; also called VH10 VL10.M1; straight-graft antibody) VH: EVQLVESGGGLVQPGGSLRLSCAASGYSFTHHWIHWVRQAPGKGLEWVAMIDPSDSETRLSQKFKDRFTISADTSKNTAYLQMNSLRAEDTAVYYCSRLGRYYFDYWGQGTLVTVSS VL: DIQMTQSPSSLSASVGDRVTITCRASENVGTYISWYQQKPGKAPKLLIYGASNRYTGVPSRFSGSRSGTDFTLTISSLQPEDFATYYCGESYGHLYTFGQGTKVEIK , please?
Reply text: 230000

Inquiry: Recorded kon for 108VH10.Mj / 108VL10.Me (antibody, V domains shown, 4D5-framework series; constant regions not restated for this series; also called VH10.Mj VL10.Me) VH: EVQLVESGGGLVQPGGSLRLSCAASGFTFSHHWIHWVRQAPGKGLEWVAMIDASDSETRLSQSFKDRFTISADTSKNTAYLQMNSLRAEDTAVYYCSRLGRYYFDYWGQGTLVTVSS VL: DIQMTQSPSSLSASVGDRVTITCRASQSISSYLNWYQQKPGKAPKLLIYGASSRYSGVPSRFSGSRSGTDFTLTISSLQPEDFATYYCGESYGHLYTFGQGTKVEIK , please?
Reply text: 610000

Inquiry: Recorded kon for 108VH10.Mh / 108VL10.Me (antibody, V domains shown, 4D5-framework series; constant regions not restated for this series; also called VH10.Mh VL10.Me) VH: EVQLVESGGGLVQPGGSLRLSCAASGFTFSHHWIHWVRQAPGKGLEWVAMIDASDSETRLVQKFKDRFTISADTSKNTAYLQMNSLRAEDTAVYYCSRLGRYYFDYWGQGTLVTVSS VL: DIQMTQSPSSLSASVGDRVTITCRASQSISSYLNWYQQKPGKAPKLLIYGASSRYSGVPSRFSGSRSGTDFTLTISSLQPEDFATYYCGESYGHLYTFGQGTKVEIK , please?
Reply text: 380000

Inquiry: Recorded kon for chimeric antibody 108C10A6 (antibody, V domains shown, Chimeric antibody with mouse variable domains; captured through human Fc; also called VH / VL) VH: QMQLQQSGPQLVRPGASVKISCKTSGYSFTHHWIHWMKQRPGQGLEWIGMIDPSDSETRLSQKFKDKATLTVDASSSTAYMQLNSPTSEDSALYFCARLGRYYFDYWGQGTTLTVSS VL: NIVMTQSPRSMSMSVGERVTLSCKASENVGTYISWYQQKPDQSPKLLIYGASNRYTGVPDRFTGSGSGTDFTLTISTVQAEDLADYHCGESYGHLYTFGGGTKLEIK , please?
Reply text: 1.6e+06
